Hey, just so you know, these numbers are from PubChem BioAssay AID1457.

Assay: qHTS Assay for Identifying the Cell-Membrane Permeable IMPase Inhibitors: Potentiation with Lithium;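 further: IP1 builds up when IMPase is blocked and the TR-FRET signal falls; nearly all actives have a fitted effect of over 50% in size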
Conditions: CHO-M1 cells, IP1 TR-FRET (IP-One), carbachol + lithium; series mostly up to 59.4 µM
The whole screen tested about 210,000 compounds, of which about 730 (0.35%) were called active. About 1% were inconclusive and are not listed. The call rests on the fitted dose curve; in most records, active means well fitted inhibition curve with a large enough effect; inconclusive means small, poorly fitted or top-dose-only effect; inactive means no such curve, though single readings can be large or run the other way. Shown is part of a subset that was picked to be rich in actives.
Output constraint: value belongs to active, inactive

c1ccc(Cc2nn3c(Cn4cnc5ccccc54)nnc3s2)cc1 : inactive
CN(C)C1C(=O)C(C(N)=O)=C(O)[C@@]2(O)C(=O)C3=C(O)c4c(O)cccc4[C@@](C)(O)C3C[C@@H]12 (stereo partly drawn) : active
CC(=O)c1c(O)c(C)c(O)c(Cc2c(O)c3c(c(C(=O)/C=C\c4ccccc4)c2O)OC(C)(C)C=C3)c1O : inactive
Clc1ccccc1 : inactive
CC(C)(c1ccccc1)c1ccc(O)cc1 : inactive
O=C(CN1CCN(S(=O)(=O)c2ccc3ccccc3c2)CC1)NC(=O)NC1CCCCC1 : inactive
O=C(O)C(=O)Cc1ccc2c(c1)OCO2 : inactive

-- ask Hey, what did the test say about `c1ccc(N2CC[C@@]3(CCCNC3)C2)nc1` ?
-- reply inactive
